| COMPOUND | melting point |
| --- | --- |
| CC(C)C(=O)NC1CCc2c(c3cc(Br)ccc3n2Cc2ccccc2)C1 (stereo not drawn) [Example 30] | 173 to 177 °C |
| CO/N=C/c1ccc2c(c1)c1c(n2Cc2cccc(F)n2)CC[C@@H](NC(=O)C2CC2)C1 [Example 209] | 223 to 225 °C |
| Cc1ccc2c(c1)c1c(n2Cc2cccc(F)c2)CCC(NC(=O)C(C)C)C1 (stereo not drawn) [Example 47] | 215 to 217 °C |
| CC(C)C(=O)NC1CCc2c(c3cc(Cl)ccc3n2Cc2cccc(Cl)c2)C1 (stereo not drawn) [Example 22] | 187 to 189 °C |
| CC(C)C(=O)NC1CCc2c(c3cc(F)ccc3n2Cc2ccccc2F)C1 (stereo not drawn) [Example 4] | 156 to 158 °C |
| CC(C)C(=O)NC1CCc2c(c3cc(F)ccc3n2Cc2ccc(F)cc2)C1 (stereo not drawn) [Example 12] | 166 to 168 °C |
| COc1ccccc1Cn1c2c(c3cc(F)ccc31)CC(NC(=O)C(C)C)CC2 (stereo not drawn) [Example 6] | 196 to 198 °C |
| Cc1cccc2c3c(n(Cc4cccc(F)c4)c12)CCC(NC(=O)C(C)C)C3 (stereo not drawn) [Example 60] | 188 to 191 °C |
| CC(C)C(=O)NC1CCc2c(c3ccc(Cl)cc3n2Cc2cccc(F)c2)C1 (stereo not drawn) [Example 56] | 233 to 235 °C |
| CC(C)C(=O)NC1CCc2c(c3cc(Cl)ccc3n2Cc2cc(F)cc(F)c2)C1 (stereo not drawn) [Example 29] | 207 to 210 °C |
| CC(C)C(=O)NC1CCc2c(c3cc(F)ccc3n2Cc2ccc(Cl)cc2)C1 (stereo not drawn) [Example 13] | 188 to 190 °C |
| Cc1ccc2c(c1)c1c(n2Cc2ccccc2F)CCC(NC(=O)C(C)C)C1 (stereo not drawn) [Example 43] | 174 to 176 °C |
| CC(C)C(=O)NC1CCc2c(c3cc(C#N)ccc3n2Cc2ccc(F)cn2)C1 (stereo not drawn) [Example 181] | 235 to 238 °C (dec.) |
| COc1ccc(Cn2c3c(c4cc(F)ccc42)CC(NC(=O)C(C)C)CC3)cc1 (stereo not drawn) [Example 15] | 178 to 181 °C |
| CC(C)C(=O)NC1CCc2c(c3cc(F)ccc3n2Cc2cccc(F)c2)C1 (stereo not drawn) [Example 8] | 181 to 184 °C |
| CC(C)C(=O)N[C@@H]1CCc2c(c3cc(-c4ccno4)ccc3n2Cc2cccc(F)c2)C1 [Example 192] | 238 to 241 °C |
| N#Cc1ccc2c(c1)c1c(n2Cc2ccccn2)CC[C@@H](NC(=O)C2CC2)C1 [Example 196] | 239 to 241 °C |
| COc1cc2c3c(n(Cc4cccc(F)c4)c2cc1Cl)CCC(NC(=O)C(C)C)C3 (stereo not drawn) [Example 59] | 212 to 215 °C |

###

Biological target: human androgen receptor (AR) (Homo sapiens, UniProt P10275)
Construct: expressed in transfected cells; host or cells: mouse myoblast C2C12 cells, transiently co-transfected
Sequence (P10275 1-920): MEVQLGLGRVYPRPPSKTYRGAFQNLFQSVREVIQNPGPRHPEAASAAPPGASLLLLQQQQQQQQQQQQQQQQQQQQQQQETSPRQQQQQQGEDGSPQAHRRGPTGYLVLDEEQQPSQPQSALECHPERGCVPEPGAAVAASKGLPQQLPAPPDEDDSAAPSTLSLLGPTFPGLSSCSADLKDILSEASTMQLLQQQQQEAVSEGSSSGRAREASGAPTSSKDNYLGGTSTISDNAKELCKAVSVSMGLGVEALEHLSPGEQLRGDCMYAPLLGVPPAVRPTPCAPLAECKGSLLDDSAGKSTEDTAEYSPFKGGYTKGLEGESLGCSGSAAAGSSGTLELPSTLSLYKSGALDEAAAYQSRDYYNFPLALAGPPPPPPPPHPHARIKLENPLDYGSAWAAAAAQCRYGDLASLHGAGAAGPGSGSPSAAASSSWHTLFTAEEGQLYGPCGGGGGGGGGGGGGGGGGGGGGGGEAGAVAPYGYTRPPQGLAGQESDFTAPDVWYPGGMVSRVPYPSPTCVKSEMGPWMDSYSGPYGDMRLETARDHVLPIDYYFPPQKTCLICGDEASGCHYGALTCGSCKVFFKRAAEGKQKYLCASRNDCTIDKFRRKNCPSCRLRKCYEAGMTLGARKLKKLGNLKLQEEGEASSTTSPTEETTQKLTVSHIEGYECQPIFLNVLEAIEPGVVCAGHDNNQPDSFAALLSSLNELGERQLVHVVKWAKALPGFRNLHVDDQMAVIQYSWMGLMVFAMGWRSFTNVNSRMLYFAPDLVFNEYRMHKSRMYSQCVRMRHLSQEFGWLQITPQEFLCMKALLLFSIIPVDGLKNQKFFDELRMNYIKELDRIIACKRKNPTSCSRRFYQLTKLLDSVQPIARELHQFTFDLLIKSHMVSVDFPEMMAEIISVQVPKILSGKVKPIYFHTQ
Assay: C2C12 AR/ARE reporter assay
Format: cell-based
Conditions: C2C12, read-out: C2C12 % Efficacy
Listed here: items and their measured Emax.

| MOLECULE | RESULT UNIT | Emax |
| --- | --- | --- |
| CC(C)C(=O)N[C@@H]1CCc2c(c3cc(C=O)ccc3n2Cc2cccc(F)c2)C1 [Example 200] | % | 112 |
| CON(C)C(=O)NC1CCc2c(c3cc(C#N)ccc3n2Cc2cccc(F)c2)C1 (stereo not shown) [Example 180] | % | 97 |
| Cc1nc(Cn2c3c(c4cc(C#N)ccc42)C[C@H](NC(=O)C(C)C)CC3)cs1 [Example 151] | % | 85.6 |
| CC(C)C(=O)N[C@@H]1CCc2c(c3cc(C#N)ccc3n2Cc2ccccc2N)C1 (single isomer, unassigned) [Example 110] | % | 110 |

###

| COMPOUND | melting point |
| --- | --- |
| CC(C)C(=O)NC1CCc2c(c3cc(-c4nnc(N)s4)ccc3n2Cc2cccc(F)c2)C1 (centres unmarked) | 251 to 254 °C |
| Cc1ccc2c(c1)c1c(n2Cc2ccccc2Cl)CCC(NC(=O)C(C)C)C1 (centres unmarked) | 194 °C |
| CC(C)C(=O)NC1CCc2c(c3cc(Br)ccc3n2Cc2cccc(C#N)c2)C1 (centres unmarked) | 228 to 230 °C |
| CC(C)C(=O)NC1CCc2c(c3cc(Cl)ccc3n2Cc2cccc(C#N)c2)C1 (centres unmarked) | 225 to 228 °C (dec.) |
| CC(C)C(=O)NC1CCc2c(c3cc(C(N)=O)ccc3n2Cc2cccc(F)c2)C1 (centres unmarked) | 192 to 194 °C |
| CC(C)C(=O)NC1CCc2c(c3cc(F)ccc3n2Cc2ccccc2C#N)C1 (centres unmarked) | 164 to 167 °C |
| CC(C)C(=O)NC1CCc2c(c3cc(Cl)ccc3n2Cc2ccc(C#N)cc2)C1 (centres unmarked) | 158 to 162 °C |
| CC(C)C(=O)NC1CCc2c(c3cc(S(C)(=O)=O)ccc3n2Cc2cccc(F)c2)C1 (centres unmarked) | 205 to 207 °C |
| CO/N=C/c1ccc2c(c1)c1c(n2Cc2cccc(F)c2)CCC(NC(=O)C(C)C)C1 (centres unmarked) | 180 to 182 °C |
| CC(C)C(=O)NC1CCc2c(c3cc(Cl)ccc3n2Cc2ccccc2)C1 (centres unmarked) | 174 to 176 °C |
| CC(C)C(=O)NC1CCc2c(c3cc(F)ccc3n2Cc2cccc(C#N)c2)C1 (centres unmarked) | 184 to 186 °C |

###

Target: human androgen receptor (AR) (Homo sapiens, UniProt P10275)
Construct: expressed in transfected cells; host or cells: mouse myoblast C2C12 cells, transiently co-transfected
Sequence (P10275 1-920): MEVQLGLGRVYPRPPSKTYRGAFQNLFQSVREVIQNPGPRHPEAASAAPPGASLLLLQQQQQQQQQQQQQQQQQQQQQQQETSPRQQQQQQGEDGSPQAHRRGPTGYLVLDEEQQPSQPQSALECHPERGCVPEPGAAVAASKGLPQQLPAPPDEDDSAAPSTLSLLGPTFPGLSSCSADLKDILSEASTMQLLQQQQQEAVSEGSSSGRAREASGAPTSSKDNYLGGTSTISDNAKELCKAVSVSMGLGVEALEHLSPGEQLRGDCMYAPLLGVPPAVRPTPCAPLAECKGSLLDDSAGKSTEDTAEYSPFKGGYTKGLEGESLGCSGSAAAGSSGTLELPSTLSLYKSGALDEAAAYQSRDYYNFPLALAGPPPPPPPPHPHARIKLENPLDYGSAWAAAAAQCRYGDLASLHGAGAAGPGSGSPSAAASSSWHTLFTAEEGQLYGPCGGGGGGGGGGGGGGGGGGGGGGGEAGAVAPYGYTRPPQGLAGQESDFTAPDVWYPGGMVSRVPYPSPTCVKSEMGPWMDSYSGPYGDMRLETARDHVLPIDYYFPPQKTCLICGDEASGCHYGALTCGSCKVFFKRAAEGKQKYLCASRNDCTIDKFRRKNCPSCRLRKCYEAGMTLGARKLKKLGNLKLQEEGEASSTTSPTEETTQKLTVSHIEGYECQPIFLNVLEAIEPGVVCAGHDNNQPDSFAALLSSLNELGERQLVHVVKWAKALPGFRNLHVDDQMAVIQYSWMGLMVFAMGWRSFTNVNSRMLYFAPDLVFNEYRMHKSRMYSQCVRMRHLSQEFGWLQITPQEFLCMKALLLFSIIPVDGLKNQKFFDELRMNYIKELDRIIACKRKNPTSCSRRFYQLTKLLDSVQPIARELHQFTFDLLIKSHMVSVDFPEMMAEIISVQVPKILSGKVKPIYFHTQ
Experiment: C2C12 AR/ARE reporter assay
Assay type: cell-based
Details: C2C12, read-out: C2C12 % Efficacy

| MOLECULE | Emax / % |
| --- | --- |
| CC(C)C(=O)NC1CCc2c(c3cc(O)ccc3n2Cc2cccc(F)c2)C1 (stereo not shown) | 86.9 |
| CC(C)C(=O)NC1CCc2c(c3cc(C#N)ccc3n2Cc2cccc(Br)c2)C1 (stereo not shown) | 93.9 |
| Cc1cccc(Cn2c3c(c4cc(Cl)ccc42)CC(NC(=O)C(C)C)CC3)c1 (stereo not shown) | 87.3 |
| CC(C)C(=O)NC1CCc2c(c3cc(-c4cncnc4)ccc3n2Cc2cccc(F)c2)C1 (stereo not shown) | 79.4 |
